Attribution: paper PMC12431657

- Tested on: HCoV-229E
- Set-up: species or system Huh-7; HTS, protection from HCoV-229E induced cell death, luminescent cell viability (CellCounting-Lite 2.0), inhibition rate
- Condition Info: 24 h post infection, 1 h compound pre-incubation; 10 µM; inhibitor
Counter-ions that a name gives are not always drawn. In all, about 3,300 compounds went through this assay and about 95 (3%) showed an effect of 50% or more. Shown is part of a subset that was picked to be rich in strong results.
Quantity Kind: 229E Inhibition rate (%)
Report as a plain number; the unit % is understood.

Compound	Unit Of Measure	229E Inhibition rate
C=C1C[C@@]23CC[C@H]4[C@@](C)(CCC[C@@]4(C)C(=O)O[C@@H]4O[C@H](CO)[C@@H](O)[C@H](O[C@@H]5O[C@H](CO)[C@@H](O)[C@H](O)[C@H]5O)[C@H]4O[C@@H]4O[C@H](CO)[C@@H](O)[C@H](O)[C@H]4O)[C@@H]2CC[C@]1(O[C@@H]1O[C@H](CO)[C@@H](O)[C@H](O[C@@H]2O[C@H](CO)[C@@H](O)[C@H](O)[C@H]2O)[C@H]1O[C@@H]1O[C@H](CO)[C@@H](O)[C@H](O)[C@H]1O)C3 [Rebaudioside M]	%	19.5
CC(C)C1=Cc2ccc3c(c2C(=O)C1=O)CCCC3(C)C	%	4.2
Cc1cc(O)c2c(c1)C(=O)c1cccc(O[C@@H]3O[C@H](CO)[C@@H](O)[C@H](O)[C@H]3O)c1C2=O [Chrysophanol 8-O-glucoside]	%	8.4
Cc1cc(O[C@@H]2O[C@H](CO)[C@@H](O)[C@H](O)[C@H]2O)c2c(c1)C(=O)c1cccc(O)c1C2=O	%	51.1
CC1(C)Oc2cc3oc(-c4cc(O)cc(O[C@@H]5OC[C@@H](O)[C@H](O)[C@H]5O)c4)cc3cc2CC1O (stereo partly drawn) [Mulberroside C]	%	0
CC(C)C[C@H](NC(=O)CN)C(=O)O	%	13.8

HCoV-229E 229E Inhibition rate of `COC[C@@H]1Cc2cc(OC)c3c(c2[C@H](c2ccc(OC)c(OC)c2)[C@H]1COC)OCO3` is 24.8

HCoV-229E 229E Inhibition rate of CC(=O)[C@H]1CC[C@H]2[C@@H]3CC=C4C[C@@H](OS(=O)(=O)O)CC[C@]4(C)[C@H]3CC[C@]12C [Pregnenolone monosulfate (sodium)] is 55.9

HCoV-229E 229E Inhibition rate of `COc1cc2oc(=O)ccc2cc1CC=C(C)C` is 15.6

HCoV-229E 229E Inhibition rate of C=C(C)C1CC=C(C)C(O)C1 (mixture of isomers) is 14.5

HCoV-229E 229E Inhibition rate of `CC(=O)[C@H]1CC[C@H]2[C@@H]3CC=C4C[C@@H](O)CC[C@]4(C)[C@H]3CC[C@]12C` is 40.7

HCoV-229E 229E Inhibition rate of `Cc1ncc(CO)c(C(=O)O)c1O` is 22.7

HCoV-229E 229E Inhibition rate of O=C(O)C(O)Cc1ccccc1 (racemic) is 22.4

HCoV-229E 229E Inhibition rate of `C[C@H]1[C@H](C)CC[C@]2(C)CC[C@]3(C)C(=CC[C@@H]4[C@@]5(C)CC[C@@H](O)[C@](C)(C(=O)O)[C@@H]5CC[C@]43C)[C@H]12` is 22.5

HCoV-229E 229E Inhibition rate of CC(C)CCC[C@@H](C)[C@H]1CC[C@H]2[C@@H]3CC=C4C[C@@H](OS(=O)(=O)O)CC[C@]4(C)[C@H]3CC[C@]12C [Cholesteryl sulfate (sodium)] is 7.6

###

- System: HCoV-229E
- Design: species or system Huh-7; HTS, protection from HCoV-229E induced cell death, luminescent cell viability (CellCounting-Lite 2.0), inhibition rate
- Condition Info: 24 h post infection, 1 h compound pre-incubation; 10 µM; inhibitor
Screen size: about 3,300 compounds; about 95 (3%) showed an effect of 50% or more. What follows is part of a selection rich in strong results, with near analogues and random picks from the rest.
Mark T for reported 229E Inhibition rate of 10% or greater; mark F for anything smaller.

Would you please look over these solved cases?
Compound	Category
CCCCCCCCC1=C(CCCCCCCC(=O)O)C1 [Sterculic acid]	T
COC(=O)Cc1c[nH]c2ccccc12 [Methyl 2-(1H-indol-3-yl)acetate]	T
O=c1cc(-c2ccc(O)c(O)c2)oc2cc(O)c([C@@H]3O[C@H](CO)[C@@H](O)[C@H](O)[C@H]3O)c(O)c12 [Isoorientin]	T
Oc1cc(O)c2c(c1)O[C@H](c1cc(O)c(O)c(O)c1)[C@H](O)C2 [(-)-Epigallocatechin]	T
C[C@H]1O[C@@H](Oc2ccc(COC(=O)CC(O)(CC(=O)OCc3ccc(O[C@@H]4O[C@H](CO)[C@@H](O)[C@H](O)[C@H]4O)cc3)C(=O)Oc3ccc(O[C@H]4O[C@H](CO)[C@@H](O)[C@H](O)[C@H]4O)cc3)cc2)[C@H](O)[C@@H](O)[C@@H]1O (stereo partly shown) [Parishin]	F
O=C(O)c1cc(O)c2c(c1)C(=O)c1cccc(O)c1C2=O [Rhein]	T

# input Does CC(=O)OC/C1=C\[C@H]2[C@@H](OC(=O)/C=C/c3ccccc3)[C@@H](C)C[C@]2(OC(C)=O)C(=O)/C(C)=C/[C@@H]2[C@H](CC1)C2(C)C [Euphorbia factor L7a] have a reported 229E Inhibition rate of at least 10%?
# output T

# input Does O=C(O)[C@H]1O[C@@H](Oc2cc(O)c3c(=O)cc(-c4ccc(O)c(O)c4)oc3c2)[C@H](O)[C@@H](O)[C@@H]1O [Luteolin 7-O-glucuronide] have a reported 229E Inhibition rate of at least 10%?
# output T

# input Does Oc1ccc([C@H]2COc3cc(O)ccc3C2)cc1 [(-)-(S)-Equol] have a reported 229E Inhibition rate of at least 10%?
# output F

# input Does O=c1cc(-c2ccc(O)cc2)oc2cc(O)c([C@@H]3O[C@H](CO)[C@@H](O)[C@H](O)[C@H]3O[C@@H]3OC[C@H](O)[C@H](O)[C@H]3O)c(O)c12 [Isovitexin 2''-O-arabinoside] have a reported 229E Inhibition rate of at least 10%?
# output T

###

- Tested on: HCoV-229E
- Parameters: species or system Huh-7; HTS, protection from HCoV-229E induced cell death, luminescent cell viability (CellCounting-Lite 2.0), inhibition rate
- Condition Info: 24 h post infection, 1 h compound pre-incubation; 10 µM; inhibitor
Where a name gives a salt, the structure may show the parent alone. Among all 3,300 compounds or so, about 95 (3%) showed an effect of 50% or more. This excerpt belongs to a sample that is enriched for strong results.
Mark Condition met for reported 229E Inhibition rate of 20% or greater; mark Condition not met for anything smaller.

Would you please look over these solved cases?
Molecule	Category
CC(=O)NCCCCCN [N-(5-Aminopentyl)acetamide]	Condition met
CCC(O)CC	Condition not met
CC(=O)NCCCCNCCCN [N8-Acetylspermidine dihydrochloride]	Condition met

# input Does `O=c1c(O[C@@H]2OC[C@@H](O)[C@H](O)[C@H]2O)c(-c2ccc(O)c(O)c2)oc2cc(O)cc(O)c12` have a reported 229E Inhibition rate of at least 20%?
# output Condition not met

# input Does OC[C@H]1O[C@@](CO)(OC[C@@]2(OC[C@@]3(OC[C@@]4(OC[C@@]5(OC[C@@]6(OC[C@@]7(OC[C@@]8(O[C@H]9O[C@H](CO)[C@@H](O)[C@H](O)[C@H]9O)O[C@H](CO)[C@@H](O)[C@@H]8O)O[C@H](CO)[C@@H](O)[C@@H]7O)O[C@H](CO)[C@@H](O)[C@@H]6O)O[C@H](CO)[C@@H](O)[C@@H]5O)O[C@H](CO)[C@@H](O)[C@@H]4O)O[C@H](CO)[C@@H](O)[C@@H]3O)O[C@H](CO)[C@@H](O)[C@@H]2O)[C@@H](O)[C@@H]1O [Fructo-oligosaccharide DP9/GF8] have a reported 229E Inhibition rate of at least 20%?
# output Condition met

# input Does `C=C1C(=O)O[C@@H]2C[C@@]3(C)CCCC(=C)[C@@H]3C[C@H]12` have a reported 229E Inhibition rate of at least 20%?
# output Condition met

# input Does `CC(C)c1cc2c(c(O)c1O)[C@@]13CCCC(C)(C)[C@@H]1[C@H](OC3=O)[C@H]2O` have a reported 229E Inhibition rate of at least 20%?
# output Condition not met

###

- Tested on: HCoV-229E
- Parameters: species or system Huh-7; HTS, protection from HCoV-229E induced cell death, luminescent cell viability (CellCounting-Lite 2.0), inhibition rate
- Condition Info: 24 h post infection, 1 h compound pre-incubation, 10 µM, inhibitor, 229E Inhibition rate, 24 h
Where a name gives a salt, the structure may show the parent alone. About 95 (3%) of roughly 3,300 compounds showed an effect of 50% or more. This excerpt belongs to a sample that is enriched for strong results.
// values below are reported 229E Inhibition rate
Report as a plain number; the unit % is understood.

Worked cases, answers included:
Molecule	229E Inhibition rate / %
COc1ccc2cc3[n+](cc2c1OC)CCc1cc2c(cc1-3)OCO2 [Berberine (chloride hydrate)]	34
O=C(O)CC(O)(CC(=O)O)C(=O)O [Sodium citrate (dihydrate)]	0

get_value(item= C/C=C1\C(=O)C[C@H]2[C@@H]3CCC4=CC(=O)CC[C@]4(C)[C@H]3CC[C@]12C [(Z)-Guggulsterone] , readout=229E Inhibition rate) returns 6.7

get_value(item= Nc1ncnc2c1ncn2[C@H]1C[C@H](O)[C@@H](CO)O1 [2'-Deoxyadenosine monohydrate] , readout=229E Inhibition rate) returns 8.6
